Entries annotated with measured GI50
- Test system: HCT-116
- METHOD: NCI tumour cell line growth inhibition, 48 h
Calls of active or inactive are those of the source. Cut-off read from the data, not from the text of the source: active = GI50 up to about 1.1 µM and inactive = higher.

C/C(=N\NC(N)=S)c1cc(C)c(C)cc1C    > 100 µM (inactive)
NC(C(=O)O)C(N)C(=O)O (stereo not drawn)    > 100 µM (inactive)
CCCCNC(=S)Nc1nc(C(=O)NNC(=S)NCC)cs1    53.1 µM (inactive)
COc1cc(Cl)cc(N(O)C(C)=O)c1OCc1ccccc1    75.2 µM (inactive)
CN(C)CCNC1=CC(=O)c2nc3ccccc3c3ccnc1c23    2.88 µM (inactive)

Enquiry: Requested field: GI50. Item: "COc1ccc(C(=O)N2CCN(c3ccc4[nH]c(=O)oc4c3)CC2)cc1"
Return: > 100 µM (inactive)

Enquiry: Quick one: GI50 for "CC1=CC(=O)/C(=C/N2C(=O)CNC2=S)C(=O)O1" ?
Return: > 100 µM (inactive)

Enquiry: Look up GI50: "CC(=O)C(=NNc1ccc(-n2c(C)nc3ccc(Br)cc3c2=O)cc1)C(C)=O"
Return: 88.3 µM (inactive)

Enquiry: Given "Cc1ccc(C2=NN=C3C(c4ccccc4)=Nc4ccccc4N3C2)cc1" , state its recorded GI50.
Return: 5.28 µM (inactive)

Enquiry: Report GI50 for C=C1C2CC(OC(C)=O)C3(C)C(c4ccoc4)OC(=O)[C@@H](O)[C@]13OC1C[C@H](OC(C)=O)C(C)(C)[C@H](CC(=O)OC)[C@]12C (stereo partly drawn) please.
Return: > 100 µM (inactive)

Enquiry: Which GI50 value is on record for COc1ccc(-n2cnc3c(NC(Cc4ccccc4)C(=O)O)ncnc32)cc1 (stereo not drawn) ?
Return: > 100 µM (inactive)
